These data points were gathered from patent US20200262895A1.

subject of test: T1, recombinant human tau, isoform Tau-F of 441 aa (hTau40) (human, UniProt P10636 1-758)
T1 construct: Bought from rPeptide (Bogart, GA, USA); coated on ELISA plates, blotted, or spotted as overlapping peptides; also called full-length tau; rTau
measurement protocol: direct ELISA on coated recombinant tau (rTau)
observable: EC50

Problem: // lookup EC50 for recombinant human antibody NI-105.6L9 (germlined) (antibody, human IgG1, V domains shown, Complete recombinant human IgG1 by the methods) VH: EVQLVESGGGLVQPGGSLRLSCAGTRFTFSTYAMGWVRQAPGRGLEWVSAIGGSGDSTSYADSVKGRFTISRDNSKNTLYLQMNSLRAEDTAVYYCAKGVYDYLWGSYRLFDYWGQGTLVTVSS VL: SYVLTQPPSVSVAPGQTARFTCGGNNIASKSVHWYQQKPGQAPVLVVYDDSDRPSRIPERFSGSNSGNTATLTISRVEAGDEADYYCQVWDSTSDHVVFGGGTKLTVL
Result: 2.5 nM

Problem: // lookup EC50 for recombinant human antibody NI-105.9C4 (germlined) (antibody, human IgG1, V domains shown, Complete human IgG1 by the methods) VH: QVQLVQSGAEVKKPGASVKVSCKASGYIFTAFFMHWVRQAPGQGLEWMGWINPDSGATKYAHNFQGRVTMTRDTSISTAFMELSGLKSDDTGVYYCATGMAVTGNFWGQGTLVTVSS VL: SYELTQPPSVSVSPGQTARITCSGDVLAETYARWFQQKPGQAPVLVMYRDRERPAGIPERFSGSSSGNTVTLTISGAQAEDEAVYHCHSVADNNLDWVFGGGTKLTVL
Result: 5.2 nM

Problem: // lookup EC50 for recombinant human antibody NI-105.6C5 (germlined) (antibody, human IgG1, V domains shown) VH: QVQLVESGGGVVQPGRSLRVSCAASGFTFSSYDMHWVRQAPGKGLEWVAVIWFDGSNEFYADSVKGRFTISRDNSKNTLFLQMNSLRAEDTAVYYCARDLGASVTTSNAENFHHWGQGTLVTVSS VL: SYELTQPPSVSVSPGQTARITCSGDALPKRYVYWYQQKSGQAPVLVIYEDSKRPSGIPETFSGSSSGTMATLTISGAQVEDEADYYCYSTDSNGHHWVFGGGTKLTVL
Result: 0.033 nM

Problem: // lookup EC50 for recombinant human antibody NI-105.39E2 (germlined) (antibody, human IgG1, V domains shown, Complete recombinant human IgG1 by the methods) VH: EVQLVESGGGLVQPGGSLRLSCAASGFTFSAYGMNWVRQAPGKGLEWVAHITGSGTPIFYADSVKGRFTISRDNAKSSLYLQMNSLRNDDTALYFCVRGTVDYWGQGTLVTVSS VL: QAGLTQPPSVSKDLRQTATLTCSGNSNNVGNQGAAWLQQFPGHPPKLLFYENINRPSGISERFSASRSGNTASLTITGLQPEDEADYYCSAWDGHLNAWVFGGGTKLTVL
Result: 0.7 nM
